Every entry's value here was drawn from patent US4570006A.

// values below are IC50; system is Plasmin (Homo sapiens)
Sequence (P00747 581-810 limits assumed, species assumed): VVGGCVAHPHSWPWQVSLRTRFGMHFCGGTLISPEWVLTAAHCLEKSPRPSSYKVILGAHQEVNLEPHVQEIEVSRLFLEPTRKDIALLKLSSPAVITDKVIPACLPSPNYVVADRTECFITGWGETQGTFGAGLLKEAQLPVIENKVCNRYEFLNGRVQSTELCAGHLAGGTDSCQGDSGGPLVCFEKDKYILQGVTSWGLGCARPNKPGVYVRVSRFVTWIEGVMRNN
Sequence (P00747 97-580 limits assumed, species assumed): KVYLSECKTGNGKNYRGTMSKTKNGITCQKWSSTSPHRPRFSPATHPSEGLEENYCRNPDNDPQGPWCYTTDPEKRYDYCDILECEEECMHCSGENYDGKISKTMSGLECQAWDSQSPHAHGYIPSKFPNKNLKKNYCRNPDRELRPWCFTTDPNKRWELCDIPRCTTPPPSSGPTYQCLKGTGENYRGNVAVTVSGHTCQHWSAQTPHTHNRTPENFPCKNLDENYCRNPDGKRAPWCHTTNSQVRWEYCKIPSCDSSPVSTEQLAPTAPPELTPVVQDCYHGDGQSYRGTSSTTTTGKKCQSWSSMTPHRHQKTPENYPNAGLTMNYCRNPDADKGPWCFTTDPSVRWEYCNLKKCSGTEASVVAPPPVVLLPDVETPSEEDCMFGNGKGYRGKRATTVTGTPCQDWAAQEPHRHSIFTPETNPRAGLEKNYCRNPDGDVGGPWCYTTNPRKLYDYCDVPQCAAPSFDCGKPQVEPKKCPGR
State just the number; it will be interpreted in µM.

Below, 6 compounds whose answers are already recorded.
>>> measured_result("COc1cc(C(=N)N)ccc1OC(=O)c1ccc(CN)cc1")
8
>>> measured_result("COC(=O)c1cc(C(=N)N)ccc1OC(=O)c1ccc(C=O)cc1")
0.3
>>> measured_result("COC(=O)c1cc(C(=N)N)ccc1OC(=O)c1ccc(CN)cc1")
4
>>> measured_result("N=C(N)c1ccc(OC(=O)C=Cc2ccc3c(c2)OCO3)c([N+](=O)[O-])c1")
0.2
>>> measured_result("CN(C)c1ccc(C(=O)Oc2ccc(C(=N)N)cc2C(=O)c2ccccc2)cc1")
0.4
>>> measured_result("N=C(N)Nc1ccc(C(=O)Oc2ccc(C(=N)N)cc2C(=O)c2ccccc2)cc1")
2

Now, please, on to the next compound.
INPUT: System Plasmin (Homo sapiens). Read-out IC50. Item N=C(N)c1ccc(OC(=O)c2ccccc2)c([N+](=O)[O-])c1 [Compound 27, 4-amidino-2-nitrophenyl benzoate] . Report value.
OUTPUT: 0.4
